Ref: ChEMBL document CHEMBL1140576

I'd appreciate it if you could supply CC50 values for the items below.
Test: Cytotoxicity against human HCT116 cells
Type: cell-based, HCT-116

[
  {
    "item smiles": "O=C(CSc1nnc(-c2ccc(Cl)cc2)n1-c1ccccc1)NNC(=O)c1ccccc1O",
    "observation type": "CC50",
    "val": "> 20 µM"
  },
  {
    "item smiles": "Cc1ccc(-n2c(SCC(=O)NNC(=O)c3ccccc3O)nnc2-c2ccccc2O)cc1",
    "observation type": "CC50",
    "val": "> 20 µM"
  },
  {
    "item smiles": "Cc1cc(C)nc(SCc2nnc(SCC(=O)NNC(=O)c3ccccc3O)n2C)n1",
    "observation type": "CC50",
    "val": "> 20 µM"
  },
  {
    "item smiles": "Cc1ccc(-n2c(SCC(=O)NNC(=O)c3ccccc3O)nnc2-c2ccccc2)cc1",
    "observation type": "CC50",
    "val": "15 µM"
  },
  {
    "item smiles": "COc1ccc(-c2nnc(SCC(=O)NNC(=O)c3ccccc3O)n2-c2ccccc2)cc1OC",
    "observation type": "CC50",
    "val": "> 20 µM"
  }
]

Below is a list of molecules. For each, state its recorded CC50.
1. O=C(CSc1nnc(-c2ccncc2)n1-c1ccccc1)N/N=C/c1ccccc1O
2. COc1ccc(-n2c(Cc3ccccc3)nnc2SCC(=O)NNC(=O)c2ccccc2O)cc1
3. Cn1c(SCC(=O)NNC(=O)c2ccccc2O)nnc1-c1ccccc1

Result:
1: > 20 µM; 2: > 20 µM; 3: > 20 µM

Please state, for each entry, its recorded CC50.
1. COc1ccccc1-n1c(SCC(=O)NNC(=O)c2ccccc2O)nnc1-c1ccccc1O
2. O=C(CSc1nnc(-c2ccc(Cl)cc2)n1-c1ccccc1)N/N=C/c1ccccc1C(=O)O
3. O=C(CSc1nnc(-c2ccncc2)n1-c1ccc(F)cc1)NNC(=O)c1ccccc1O

Result:
1: 20 µM; 2: > 20 µM; 3: > 20 µM

Query: # get_value(readout='CC50', item= `O=C(CSc1nnc(Cc2ccccc2)n1-c1cccc(Cl)c1)NNC(=O)c1ccccc1O` )
Result: > 20 µM

* * *

System: MDA-MB-435
Assay: Cytotoxicity against human MDA-MB-435 cells at 20 uM
Type: cell-based
Settings: mda-mb-435, 20 µM
observation type: Activity (%)
Numbers only, in %.

[
  {
    "item smiles": "O=C(CSc1nnnn1-c1ccccc1)NNC(=O)c1ccc(O)cc1O",
    "quantity unit": "%",
    "Activity": 3
  }
]

Provide reported Activity for each item, in the same order as listed.
1. Cc1ccc(-n2c(SCC(=O)NNC(=O)c3ccccc3O)nnc2-c2ccccc2O)cc1
2. O=C(CSc1nnc(-c2ccncc2)n1-c1ccccc1)N/N=C/c1ccccc1O

Result:
1: 12; 2: 44

* * *

Target: Human immunodeficiency virus type 1 integrase (Human immunodeficiency virus 1, UniProt Q7ZJM1)
Sequence (Q7ZJM1 whole entry): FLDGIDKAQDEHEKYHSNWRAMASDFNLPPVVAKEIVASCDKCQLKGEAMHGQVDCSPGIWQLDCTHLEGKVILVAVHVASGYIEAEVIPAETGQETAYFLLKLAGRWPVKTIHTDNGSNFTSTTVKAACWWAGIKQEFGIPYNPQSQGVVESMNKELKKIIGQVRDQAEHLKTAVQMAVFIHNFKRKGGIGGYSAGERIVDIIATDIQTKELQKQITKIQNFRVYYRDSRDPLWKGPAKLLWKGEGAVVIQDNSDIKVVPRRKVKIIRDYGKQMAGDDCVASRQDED
Experiment: Inhibition of HIV1 integrase strand transfer activity
Field: class. Source value: IC50. Ranges: bin 0 (below 9 µM), bin 1 (9 µM to below 20 µM), bin 2 (20 µM or more)

Solved entries (count: 8):
[
  {
    "item smiles": "COc1ccc(-c2nnc(SCC(=O)NNC(=O)c3ccccc3O)n2-c2ccccc2)cc1OC",
    "qualitative label": "bin 2"
  },
  {
    "item smiles": "COc1ccccc1-n1c(SCC(=O)NNC(=O)c2ccccc2O)nnc1-c1ccccc1O",
    "qualitative label": "bin 0"
  },
  {
    "item smiles": "Cn1c(SCC(=O)NNC(=O)c2ccccc2O)nnc1-c1ccccc1",
    "qualitative label": "bin 2"
  },
  {
    "item smiles": "Cc1ccc(-n2c(SCC(=O)NNC(=O)c3ccccc3O)nnc2-c2ccccc2O)cc1",
    "qualitative label": "bin 0"
  },
  {
    "item smiles": "O=C(CSc1nnc(Cc2ccccc2)n1C1CCCCC1)NNC(=O)c1ccccc1O",
    "qualitative label": "bin 1"
  },
  {
    "item smiles": "COc1ccc(-n2c(Cc3ccccc3)nnc2SCC(=O)NNC(=O)c2ccccc2O)cc1",
    "qualitative label": "bin 1"
  },
  {
    "item smiles": "O=C(CSc1nnc(-c2ccncc2)n1-c1ccc(F)cc1)NNC(=O)c1ccccc1O",
    "qualitative label": "bin 2"
  },
  {
    "item smiles": "O=C(CSc1nnc(-c2ccncc2)n1-c1ccccc1)N/N=C/c1ccccc1O",
    "qualitative label": "bin 2"
  }
]

Query: Quick check: band for `O=C(CSc1nnc(Cc2ccccc2)n1-c1cccc(Cl)c1)NNC(=O)c1ccccc1O`
Result: bin 0

Query: Moving on to `O=C(CSc1nnc(-c2ccc(Cl)cc2)n1-c1ccccc1)NNC(=O)c1ccccc1O`
Result: bin 0
